Biological target: HIV-1 JR-CSF Env I420A (HIV-1 (isolate JR-CSF)) (UniProt P20871)
Test: cell-based or functional assay
Readings of Fold IC50 increase relative to wild-type for the listed binders

>  <BINDER>
PGT-135 (antibody, V domains shown) VH: QLQMQESGPGLVKPSETLSLSCTVSGDSIRGGEWGDKDYHWGWVRHSAGKGLEWIGSIHWRGTTHYKESLRRRVSMSIDTSRNWFSLRLASVTAADTAVYFCARHRHHDVFMLVPIAGWFDVWGPGVQVTVSS VL: EIVMTQSPDTLSVSPGETVTLSCRASQNINKNLAWYQYKPGQSPRLVIFETYSKIAAFPARFVASGSGTEFTLTINNMQSEDVAVYYCQQYEEWPRTFGQGTKVDIK

>  <Fold IC50 increase relative to wild-type (fold)>
1.4

$$$$
>  <BINDER>
PGT-126 (antibody, V domains shown) VH: QPQLQESGPGLVEASETLSLTCTVSGDSTAACDYFWGWVRQPPGKGLEWIGGLSHCAGYYNTGWTYHNPSLKSRLTISLDTPKNQVFLKLNSVTAADTAIYYCARFDGEVLVYHDWPKPAWVDLWGRGTLVTVSS VL: QSALTQPPSASGSPGQSISISCTGTSNRFVSWYQQHPGKAPKLVIYGVNKRPSGVPDRFSGSKSGNTASLTVSGLQTDDEAVYYCSSLVGNWDVIFGGGTKLTVL

>  <Fold IC50 increase relative to wild-type (fold)>
0.6

$$$$
>  <BINDER>
PGT-123 (antibody, V domains shown) VH: QLHLQESGPGLVKPPETLSLTCSVSGASINDAYWSWIRQSPGKRPEWVGYVHHSGDTNYNPSLKRRVTFSLDTAKNEVSLKLVDLTAADSATYFCARALHGKRIYGIVALGELFTYFYMDVWGKGTAVTVSS VL: SSMSVSPGETAKISCGKESIGSRAVQWYQQKPGQPPSLIIYNNQDRPAGVPERFSASPDFRPGTTATLTITNVDAEDEADYYCHIYDARGGTNWVFDRGTTLTVL

>  <Fold IC50 increase relative to wild-type (fold)>
3.2

$$$$
